assay: Pharmacokinetic profile of hordenine in plasma after alcohol free beer consumption by one volunteer; format: in vivo, human; settings: human, plasma, oral, 1.25 mg, 0.5 L alcohol free beer (hordenine 2.5 mg/L), read-out: volume of distribution Vz/F
measure: Vd/F (L)
Numbers only, in L.

(Q) Given the entry CN(C)CCc1ccc(O)cc1 , report its measured Vd/F.
(A) 1810

* * *

test: Pharmacokinetic study in healthy volunteers after oral administration of hordenine-rich dietary supplement (plasma, mag-MIP d-SPE, LC-MS/MS); format: in vivo, human; details: male, human, plasma; single oral dose 100 mg hordenine, three healthy volunteers, mean
measure: Tmax (h)
Numbers only, in h.

(Q) Given the compound CN(C)CCc1ccc(O)cc1 [hordenine, 4-(2-dimethylaminoethyl)phenol] , what is its reported Tmax?
(A) 1.08

Data credit: paper PMC7735731
